Origin of measurements: patent US20250281414A1

- assayMethodText: pH-dependent solubility of (Z)-endoxifen
- Assay type: physicochemical
- measurementConditions: solution at pH 4.5, pH 4.5, aqueous buffer; read-out: Solubility Z-form
- Description: This example describes pH-dependent solubility of (Z)-endoxifen. (Z)-endoxifen was dissolved in solution under different pH conditions, and the solubility was measured. Since (Z)-endoxifen converts to the E-form under acidic conditions, the solubility of (Z)-endoxifen and (E)-endoxifen were measured independently, and a ratio of Z-form to E-form was determined.
property: solubility (µg/mL)
Give bare numbers, in µg/mL.

Using known records, supply solubility for CC/C(=C(\c1ccc(O)cc1)c1ccc(OCCNC)cc1)c1ccccc1 [(Z)-endoxifen]
250

###

- assayMethodText: pH-dependent solubility of (Z)-endoxifen
- Assay type: physicochemical
- measurementConditions: solution at pH 5.5, pH 5.5, aqueous buffer; read-out: Solubility Z-form
property: solubility (µg/mL)
Give bare numbers, in µg/mL.

Identify measured solubility corresponding to CC/C(=C(\c1ccc(O)cc1)c1ccc(OCCNC)cc1)c1ccccc1 [(Z)-endoxifen]
43.5

###

- assayMethodText: Solubility of (Z)-endoxifen at pH 6.8 with and without Polysorbate 80
- Assay type: physicochemical
- measurementConditions: aqueous buffer; pH 6.8 Buffer (Control), no Polysorbate 80
property: solubility (µg/mL)
Answers are plain numbers, in µg/mL.

Report solubility, nothing else, for this molecule: CC/C(=C(\c1ccc(O)cc1)c1ccc(OCCNC)cc1)c1ccccc1 [(Z)-endoxifen]
8.14

###

- assayMethodText: pH-dependent solubility of (Z)-endoxifen
- Assay type: physicochemical
- measurementConditions: solution at pH 6.8, pH 6.8, aqueous buffer; read-out: Solubility Z-form
property: solubility (µg/mL)
Give bare numbers, in µg/mL.

Report solubility for CC/C(=C(\c1ccc(O)cc1)c1ccc(OCCNC)cc1)c1ccccc1 [(Z)-endoxifen]
4.26

###

- assayMethodText: pH-dependent solubility of (Z)-endoxifen
- Type: physicochemical
- measurementConditions: solution at pH 6.0, pH 6, aqueous buffer; read-out: Solubility Z-form
- Protocol: This example describes pH-dependent solubility of (Z)-endoxifen. (Z)-endoxifen was dissolved in solution under different pH conditions, and the solubility was measured. Since (Z)-endoxifen converts to the E-form under acidic conditions, the solubility of (Z)-endoxifen and (E)-endoxifen were measured independently, and a ratio of Z-form to E-form was determined.
property: solubility (µg/mL)
Give bare numbers, in µg/mL.

Supply solubility value. Item: CC/C(=C(\c1ccc(O)cc1)c1ccc(OCCNC)cc1)c1ccccc1 [(Z)-endoxifen]
27.8

###

- assayMethodText: Solubility of (Z)-endoxifen at pH 6.8 with and without Polysorbate 80
- Type: physicochemical
- measurementConditions: pH 6.8 buffer with 0.5% Polysorbate 80, pH 6.8, aqueous with cosolvent or surfactant or cyclodextrin
property: solubility (µg/mL)
Numbers only, in µg/mL.

Give the reported value of solubility for this record: CC/C(=C(\c1ccc(O)cc1)c1ccc(OCCNC)cc1)c1ccccc1 [(Z)-endoxifen]
58.3

###

- assayMethodText: pH-dependent solubility of (Z)-endoxifen
- Assay type: physicochemical
- measurementConditions: water; read-out: Solubility Z-form
property: solubility

Fill in reported solubility for this entry: CC/C(=C(\c1ccc(O)cc1)c1ccc(OCCNC)cc1)c1ccccc1 [(Z)-endoxifen]
0.78 µg/mL

###

- assayMethodText: pH-dependent solubility of (Z)-endoxifen
- Type: physicochemical
- measurementConditions: solution at pH 1.2, pH 1.2, simulated gastric fluid; read-out: Solubility Z-form
property: solubility

Look up and report measured solubility for this entry: CC/C(=C(\c1ccc(O)cc1)c1ccc(OCCNC)cc1)c1ccccc1 [(Z)-endoxifen]
1050 µg/mL

###

- assayMethodText: Solubility of (Z)-endoxifen at pH 6.8 with and without Polysorbate 80
- Assay type: physicochemical
- measurementConditions: pH 6.8 buffer with 1.0% Polysorbate 80, pH 6.8, aqueous with cosolvent or surfactant or cyclodextrin
property: solubility (mg/mL)
Answers are plain numbers, in mg/mL.

Complete the entry with solubility for CC/C(=C(\c1ccc(O)cc1)c1ccc(OCCNC)cc1)c1ccccc1 [(Z)-endoxifen]
0.0621
